Measured inhibition of individual entries
# target.under.test: G-protein coupled receptor 55 (Homo sapiens, UniProt Q9Y2T6)
# Sequence (Q9Y2T6 whole entry): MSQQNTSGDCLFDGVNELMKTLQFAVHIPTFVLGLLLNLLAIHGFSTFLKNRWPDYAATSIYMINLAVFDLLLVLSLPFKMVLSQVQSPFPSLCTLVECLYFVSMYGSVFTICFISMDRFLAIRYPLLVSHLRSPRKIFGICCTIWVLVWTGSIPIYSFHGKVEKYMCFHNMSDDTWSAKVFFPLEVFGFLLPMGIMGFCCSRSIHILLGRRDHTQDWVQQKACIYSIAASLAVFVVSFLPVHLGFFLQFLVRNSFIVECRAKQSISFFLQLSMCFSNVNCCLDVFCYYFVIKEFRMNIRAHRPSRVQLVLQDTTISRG
# assay.remarks: Antagonist activity at human GPR55 expressed in CHO cells assessed as inhibition of LPI-mediated beta-arrestin recruitment at 10 uM after 90 mins by beta-galactosidase reporter gene assay relative to control
# Format: cell-based
Lab book: enter the figure in %, no units written.

compound=CC(C)=CCC[C@]1(C)[C@@H](O[C@@H]2O[C@H](CO)[C@@H](O)[C@H](O)[C@@H]2O)CC[C@@]2(C)[C@H]1CC[C@H]1Cc3c([nH]c4ccccc34)[C@@]12C observed_measurement=13
compound=COC(C)(C)/C=C/C[C@]1(C)[C@@H](O)CC[C@@]2(C)[C@H]1CC[C@H]1Cc3c([nH]c4ccccc34)[C@@]12C observed_measurement=31
compound=CC(C)=C[C@H]1C[C@]2(C)[C@H](CC[C@@]3(C)[C@H]2CC[C@H]2Cc4c([nH]c5ccccc45)[C@@]23C)O1 observed_measurement=0

// below: inhibition requested for another compound
Entry CC(C)=CCC[C@]1(C)[C@@H](O)CC[C@@]2(C)[C@H]1CC[C@H]1Cc3c([nH]c4ccccc34)[C@@]12C [EMINDOLE SB] has what inhibition?
12
